- System: TDF
- Protocol summary: H1.0 immunofluorescence intensity relative to DMSO (% of DMSO); higher = stronger H1.0 induction, active = 120 or more
- Experimental parameters: concentration: 10 µM; 24 h

| Compound | H1.0 immunofluorescence intensity |
| --- | --- |
| CCCCCCCCCCCCCCC(O)C(O)C(CO)NC(C)=O (centres undefined) [C2 Phytoceramide] | 110 |
| CN1CCN(C2=Nc3cc(F)ccc3Cc3ccccc32)CC1 [Fluperlapine] | 100 |
| CC(C)NCC(O)COc1ccc(CC(N)=O)cc1 (centres undefined) [Atenolol] | 94.7 |
| O=C(O)Cc1c[nH]c2ccc(O)cc12 [5-Hydroxyindolacetic acid] | 99.9 |
| COc1ccccc1N1CCN(CCCNc2c(C)c(=O)n(C)c(=O)n2C)CC1 [Urapidil, 5-Methyl-] | 96.7 |
| Cc1ccc([N+](=O)[O-])cc1S(=O)(=O)N(C)N=Cc1cnc2ccc(Br)cn12 | 111 |
| CCCCCC(=O)CCC1C(O)CC(O)C1CC=CCCCC(=O)O (centres undefined) [13,14-Dihydro-15-keto-prostaglandin F2a] | 90.1 |
| CN(C)CCOc1ccc(-c2nc(=c3ccc4c(c3)CCC=4N=O)c(=C3C=CNC=C3)[nH]2)cc1 | 117 |
| Nc1nc(=O)c2ncn(COCCO)c2[nH]1 [Acyclovir] | 90.2 |

* * *

- Tested on: HCC1569
- Protocol summary: H1.0 immunofluorescence intensity relative to DMSO (% of DMSO); higher = stronger H1.0 induction, active = 140 or more
- Experimental parameters: concentration: 10 µM; 24 h
Examples of molecules with documented H1.0 immunofluorescence intensity follow.

| Molecule | H1.0 immunofluorescence intensity |
| --- | --- |
| COc1c2occc2cc2ccc(=O)oc12 | 103 |
| CN1CCN(c2c(F)cc3c(=O)c(C(=O)O)cn4c3c2SCC4)CC1 | 95.2 |
| CC(=O)c1ccc2c(c1)[C@H](NC(=O)c1ccc(F)c(Cl)c1)[C@H](O)C(C)(C)O2 | 99.5 |
| CC1CCc2c(N3CCC(O)CC3)c(F)cc3c(=O)c(C(=O)O)cn1c23 (stereo not given) | 101 |
| CCCCCC=CCC=CCC=CCCCCC(=O)O [γ-Linolenic acid (18:3 n-6)] | 98.8 |

* * *

- Tested on: HCC1569
- Protocol summary: H1.0 immunofluorescence intensity relative to DMSO (% of DMSO); higher = stronger H1.0 induction, active = 140 or more
- Experimental parameters: concentration: 10 µM; 24 h
Outcomes: active, inactive

| Molecule | Tgt | Group |
| --- | --- | --- |
| NC(=O)c1ccc2[nH]ccc2c1 | HCC1569 | inactive |
| N=C(N)c1ccc(OCCCCCOc2ccc(C(=N)N)cc2)cc1.O=S([O-])OCCO.O=S([O-])OCCO [Pentamidine isethionate] | HCC1569 | inactive |
| CS(=O)(=O)Nc1ccc(-c2coc3cc(OCc4cccc(C(=O)O)c4)ccc3c2=O)cc1 | HCC1569 | inactive |
| Cc1ccc(Nc2nccc(N(C)c3ccc4c(C)n(C)nc4c3)n2)cc1S(N)(=O)=O | HCC1569 | active |
| CC(=O)OC1(C(C)=O)CCC2C3C=C(Cl)C4=CC(=O)C5CC5C4(C)C3CCC21C (stereo not drawn) [Cyproterone Acetate] | HCC1569 | inactive |
| COCCCCCCCCCCCC(=O)O | HCC1569 | inactive |
| c1ccc(-c2n[nH]c3c2oc2ccccc23)cc1 | HCC1569 | inactive |
| C=C(C)C1CCC2(CO)CCC3(C)C(CCC4C5(C)CCC(O)C(C)(C)C5CCC43C)C12 (stereo not drawn) | HCC1569 | inactive |

* * *

Examples of molecules with documented cell number follow.
- Test system: HCC1569
- Protocol summary: cell number relative to DMSO (% of DMSO); higher = more cells (less growth inhibition / toxicity)
- Experimental parameters: concentration: 10 µM; 24 h
Quantity measured: cell number

| Molecule | Tgt | Quantity measured | Recorded value |
| --- | --- | --- | --- |
| CCCCCCCCCCCCCCCC(=O)NCCc1ccc(O)c(O)c1 | HCC1569 | cell number | 92.7 |
| CCCCc1nc(Cl)c(CO)n1Cc1ccc(-c2ccccc2-c2nnn[n-]2)cc1.[K+] | HCC1569 | cell number | 102 |
| Cl.c1ccc(C2CN3CCSC3=N2)cc1 (stereo not drawn) [Tetramisole hydrochloride] | HCC1569 | cell number | 99.8 |
| C=CC1(C)CC(=O)C2(O)C(C)(O1)C(OC(C)=O)C(O)C1C(C)(C)CCC(O)C12C (stereo not drawn) | HCC1569 | cell number | 89.8 |
| COc1ccc2c(c1)c(CC(=O)O)c(C)n2C(=O)c1ccc(Cl)cc1 | HCC1569 | cell number | 101 |
| COc1cc2nc(N3CCN(C(=O)C4COc5ccccc5O4)CC3)nc(N)c2cc1OC (stereo not drawn) | HCC1569 | cell number | 96.5 |
| CC1=CC(=O)C(C(C)C)=CC1=O | HCC1569 | cell number | 104 |
| CC(Cc1ccc(O)c(O)c1)(NN)C(=O)O (stereo not drawn) [S-(-)-Carbidopa] | HCC1569 | cell number | 106 |
| CCOC(OCC)P(=O)(O)CCCNCc1ccc(Cl)c(Cl)c1 | HCC1569 | cell number | 108 |
| Cc1[nH]c2ccccc2c1C1=C(NCCc2ccc(F)cc2)C(=O)N(C)C1=O | HCC1569 | cell number | 82.4 |
| NC(=O)c1cccc(NC(=O)/C=C/c2c[nH]c3ccccc23)c1 [(E)-3-(3-(1H-indol-3-yl)acrylamido)benzamide] | HCC1569 | cell number | 97.9 |
| CCc1cccc(N(C)C(N)=Nc2cccc3ccccc23)c1.Cl | HCC1569 | cell number | 87.1 |
| Cc1ccc(C(=O)c2ccc(CC(=O)O)n2C)cc1 | HCC1569 | cell number | 101 |
| COc1cc(C=Cc2ccccc2)oc(=O)c1 [5,6-Dehydrokawain] | HCC1569 | cell number | 104 |
| O=C1c2cccc(O)c2C(=O)c2c(O)cc(CO)cc21 | HCC1569 | cell number | 95.7 |
| Clc1ccc(C(c2ccccc2Cl)C(Cl)Cl)cc1 (stereo not drawn) | HCC1569 | cell number | 96.1 |
| O=C(c1ccc(Cl)c(S(=O)(=O)NCC2CCCO2)c1)N1CCN(c2ncccn2)CC1 (stereo not drawn) | HCC1569 | cell number | 86.3 |
| Nc1nc(SCc2ccc([N+](=O)[O-])cc2)c2ncn(C3OC(CO)C(O)C3O)c2n1 (stereo not drawn) | HCC1569 | cell number | 101 |
| O=C(O)CCCC=CCC1C(O)CC(F)C1C=CC(O)C1Cc2ccccc2C1 (stereo not drawn) | HCC1569 | cell number | 103 |
| CC(C)(C)C1(O)CCN2CC3c4ccccc4CCc4cccc(c43)C2C1.Cl (single isomer, unassigned; (+)) [(+)-Butaclamol hydrochloride] | HCC1569 | cell number | 54 |
| Nc1c(Br)cc(Br)cc1CNC1CCC(O)CC1 (stereo not drawn) | HCC1569 | cell number | 104 |
| CC(C=CC=C(C)C=CC1=C(C)C(=O)CCC1(C)C)=CC=CC=C(C)C=CC=C(C)C=CC1=C(C)C(=O)CCC1(C)C | HCC1569 | cell number | 102 |
| Cc1ccc(OCCSc2ncccn2)c(Br)c1 [2-{[2-(2-bromo-4-methylphenoxy)ethyl]sulfanyl}pyrimidine] | HCC1569 | cell number | 100 |
| COc1ccc(-c2cnc3c(-c4ccsc4)cnn3c2)cc1 | HCC1569 | cell number | 94.9 |
| CCCOC(=O)c1cc(O)c(O)c(O)c1 [N-Propyl gallate] | HCC1569 | cell number | 89 |
| CS(=O)(=O)Nc1ccc([N+](=O)[O-])cc1Oc1ccccc1 [Nimesulide] | HCC1569 | cell number | 104 |
| CC=CCC=CCCC(=O)C1OC1C(N)=O (stereo not drawn) | HCC1569 | cell number | 92.6 |
| CN(c1ccccc1CNc1nc(Nc2ccc3c(c2)CC(=O)N3)ncc1C(F)(F)F)S(C)(=O)=O | HCC1569 | cell number | 54.4 |
| CNCC(O)c1cccc(O)c1.Cl (stereo not drawn) [Phenylephrine hydrochloride] | HCC1569 | cell number | 107 |
| COc1cc(C(=O)OCCCN2CCCN(CCCOC(=O)c3cc(OC)c(OC)c(OC)c3)CC2)cc(OC)c1OC | HCC1569 | cell number | 107 |
| COC(=O)c1c(C)[nH]c(C)c1C(=O)c1ccccc1Cc1ccccc1 | HCC1569 | cell number | 102 |
| COc1cc(Nc2c(C#N)cnc3cc(OCCCN4CCN(C)CC4)c(OC)cc23)c(Cl)cc1Cl | HCC1569 | cell number | 67 |
| CC(=O)OC(C)C[N+](C)(C)C.[Cl-] (stereo not drawn) [Acetyl-beta-methylcholine chloride] | HCC1569 | cell number | 110 |
